Test system: EU-1
Test: WST cytotoxicity assay, cancer cell EU-1
Type: cell-based, human
Conditions: Homo sapiens, EU-1, EU-1; no other cell line named in the cell; read-out: Cancer cell (EU-1) cytotoxicity IC50
Description: This study used two ALL cell lines (EU-1 and EU-3) and three NB cell lines (NB-1643, SHEP1 and LA1-55N). […] The cytotoxic effect of MX 69 and MX69 analogs on cancer cells was determined using the water-soluble tetrazolium salt (WST) assay. […] WST (25 μg/well) was then added and incubation continued for an additional 4 h, after which optical density (OD) was read with a microplate reader (test wavelength of 450 nm; reference wavelength of 620 nm).
pIC50: −log10 of the molar value.
Hi there, I'd appreciate the recorded pIC50 for every entry that follows.

Answered examples (5):
COC(=O)c1ccc([C@H]2Nc3ccc(S(=O)(=O)Nc4ccc(C)c(C)c4)cc3C3OCCC32)cc1 (stereo partly shown) | 5.41 to 5.52
COC(=O)c1ccc([C@@]2(N)C[C@H](c3ccc(Cl)cc3)c3cc(S(=O)(=O)Nc4ccc(C)c(C)c4)ccc3N2)cc1 | < 4.30
Cc1ccc(NS(=O)(=O)c2ccc3c(c2)[C@H]2OCC[C@H]2C(c2ccc(S(C)(=O)=O)cc2)N3)cc1C (stereo partly shown) | 5.39
CC(C)C(=O)c1ccc(C2Nc3ccc(S(=O)(=O)Nc4ccccc4)cc3[C@H]3OCC[C@@H]23)cc1 (stereo partly shown) | 5.49
CC(C)C(=O)c1ccc([C@@H]2Nc3ccc(S(=O)(=O)Nc4ccc(C(F)(F)F)c(C(F)(F)F)c4)cc3C3OCC[C@H]32)cc1 (stereo in doubt) | < 5.00

// for each molecule in input: emit pIC50
1. Cc1ccc(NS(=O)(=O)c2ccc3c(c2)C(=O)C[C@@H](c2ccc(C(=O)C(C)C)cc2)N3)cc1C (stereo in doubt)
2. CC(C)C(=O)c1ccc(C2Nc3ccc(S(=O)(=O)Nc4ccc(Br)c(Br)c4)cc3[C@H]3OCC[C@@H]23)cc1 (stereo partly shown)
3. COC(=O)c1ccc([C@@H]2Nc3cc(Cl)c(S(=O)(=O)Nc4ccc(C)c(C)c4)cc3[C@H]3OCC[C@H]32)cc1
4. CC(C)C(=O)c1ccc(C2CC(=O)c3cc(S(=O)(=O)Nc4ccc(Cl)c(Cl)c4)ccc3N2)cc1 (stereo not shown)
5. COC(=O)c1ccc(C2Nc3ccc(S(=O)(=O)Nc4ccc(C)c(C)c4)cc3[C@H]3OCC[C@@H]23)cc1 (stereo partly shown)
6. COC(=O)c1ccc(C2Nc3c(Cl)cc(S(=O)(=O)Nc4ccc(C)c(C)c4)cc3C3OCC[C@@H]23)cc1 (stereo partly shown)

-- reply
1. 6.22 to 6.70
2. 5.28
3. < 4.30
4. 5.73
5. 5.22 to 5.82
6. < 4.30

// for each molecule in input: emit pIC50
1. Cc1ccc(NS(=O)(=O)c2ccc3c(c2)C(O)C[C@H](c2ccc(C(=O)O)cc2)N3)cc1C (stereo partly shown)
2. CC(=O)c1cccc(C2Nc3ccc(S(=O)(=O)Nc4ccc(C)c(C)c4)cc3C3OCC[C@@H]23)c1 (stereo in doubt)

-- reply
< 4.30
5.71

---

Hi there, I'd appreciate the recorded IC50 for every entry that follows.
system: EU-1; assay: WST cytotoxicity assay, cancer cell EU-1; type: cell-based, human; conditions: Homo sapiens, EU-1, EU-1; no other cell line named in the cell; read-out: Cancer cell (EU-1) cytotoxicity IC50

Answered examples (3):
Cc1ccc(NS(=O)(=O)c2ccc3c(c2)[C@H]2c4ccccc4C[C@H]2[C@H](c2ccc(Br)cc2)N3)cc1C [Compound 69L7] | > 50 µM
Cc1ccc(NS(=O)(=O)c2cc3c(cc2Cl)N[C@@H](c2ccc(S(C)(=O)=O)cc2)[C@@H]2CC=C[C@H]32)cc1C [Compound 69L24] | > 50 µM
CC(C)C(=O)c1ccc(C2Nc3ccc(S(=O)(=O)Nc4ccc5c(c4)OCO5)cc3[C@H]3OCC[C@@H]23)cc1 (stereo partly shown) [Compound 69L142] | > 5 µM

// for each compound in input: emit IC50
1. COC(=O)c1ccc([C@H]2Nc3ccc(S(=O)(=O)Nc4ccc(C)c(C)c4)cc3[C@H]3OCC[C@@H]23)cc1 [Compound 69L28]
2. CC(=O)c1cccc(NS(=O)(=O)c2ccc3c(c2)C2NCC[C@H]2[C@H](c2ccc(C(=O)C(C)C)cc2)N3)c1 (stereo partly drawn) [69L130 cis]
3. Cc1ccc(S(=O)(=O)Nc2ccc3c(c2)[C@H]2OCC[C@H]2C(c2ccc(C(=O)C(C)C)cc2)N3)cc1C (stereo in doubt) [Compound 69L162]
4. Cc1ccc(NS(=O)(=O)c2ccc3c(c2)C2NCC[C@H]2[C@H](c2ccc(C(=O)O)cc2)N3)cc1C (stereo partly shown) [Compound 69L41]

-- reply
1: 8.4 to 11.9 µM; 2: > 10 µM; 3: > 5 µM; 4: > 50 µM
